Below is a list of entries, each paired with its recorded log10(IC50) value.
test_target: human TLR9 (Homo sapiens (Human), UniProt Q9NR96)
Sequence (Q9NR96 26-1032): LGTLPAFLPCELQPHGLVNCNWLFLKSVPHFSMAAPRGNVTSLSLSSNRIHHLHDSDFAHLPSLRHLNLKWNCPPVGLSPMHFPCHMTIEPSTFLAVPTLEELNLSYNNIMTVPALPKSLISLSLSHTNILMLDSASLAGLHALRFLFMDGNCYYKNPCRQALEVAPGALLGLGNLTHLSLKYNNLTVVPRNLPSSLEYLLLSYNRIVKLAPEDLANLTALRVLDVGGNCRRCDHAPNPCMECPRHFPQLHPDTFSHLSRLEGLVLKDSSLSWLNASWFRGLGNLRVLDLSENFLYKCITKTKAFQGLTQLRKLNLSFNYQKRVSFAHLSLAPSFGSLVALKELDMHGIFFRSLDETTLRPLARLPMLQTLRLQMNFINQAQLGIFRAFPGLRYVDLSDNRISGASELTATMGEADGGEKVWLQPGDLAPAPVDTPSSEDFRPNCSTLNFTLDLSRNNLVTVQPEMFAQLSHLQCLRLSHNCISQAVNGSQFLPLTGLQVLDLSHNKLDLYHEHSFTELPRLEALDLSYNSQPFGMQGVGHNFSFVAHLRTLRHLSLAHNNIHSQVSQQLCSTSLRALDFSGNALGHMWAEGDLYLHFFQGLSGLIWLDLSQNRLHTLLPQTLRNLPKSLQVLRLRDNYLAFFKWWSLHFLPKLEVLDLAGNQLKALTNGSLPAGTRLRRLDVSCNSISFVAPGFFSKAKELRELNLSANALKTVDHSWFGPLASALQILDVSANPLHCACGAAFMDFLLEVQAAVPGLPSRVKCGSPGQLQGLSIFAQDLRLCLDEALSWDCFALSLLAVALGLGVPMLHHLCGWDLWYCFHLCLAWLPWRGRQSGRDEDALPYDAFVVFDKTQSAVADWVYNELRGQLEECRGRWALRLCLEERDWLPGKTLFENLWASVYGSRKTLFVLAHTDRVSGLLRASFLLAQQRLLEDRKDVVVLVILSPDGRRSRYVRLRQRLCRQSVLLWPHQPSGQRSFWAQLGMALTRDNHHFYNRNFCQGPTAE
assay_overview: TLR9 inhibition reporter assay (HEK-Blue cells, SEAP reporter, ODN2006 stimulation)
reported_conditions: read-out: TLR9 IC50, HEK-Blue cells overexpressing human TLR9, ODN2006 5 nM
In plain terms, each number is the log10 of measured IC50 in nM.

{"compound": "CNCCN1CCC(c2ccc3[nH]c(-c4ccnc(F)c4)c(C)c3c2)CC1", "test_target": "human TLR9 (Homo sapiens (Human), UniProt Q9NR96)", "log10(IC50)": 2.43}
{"compound": "Cc1cc(-c2[nH]c3ccc(C4CCN(C(=O)CN(C)CC#N)CC4)cc3c2C(C)C)cc(C)n1", "test_target": "human TLR9 (Homo sapiens (Human), UniProt Q9NR96)", "log10(IC50)": 3.12}
{"compound": "Cc1cc(-c2[nH]c3ccc(C4CCN(C(=O)CN5CCCC(C)C5)CC4)cc3c2C(C)C)cc(C)n1 (centres unmarked)", "test_target": "human TLR9 (Homo sapiens (Human), UniProt Q9NR96)", "log10(IC50)": 2.59}
{"compound": "CC(C)c1c(-c2ccnc(CO)c2)[nH]c2ccc(C3CCNCC3)cc12", "test_target": "human TLR9 (Homo sapiens (Human), UniProt Q9NR96)", "log10(IC50)": 3.18}
{"compound": "CCC(=O)N1CCC(c2ccc3[nH]c(-c4cc(C)nc(C)c4)c(C(C)C)c3c2)CC1", "test_target": "human TLR9 (Homo sapiens (Human), UniProt Q9NR96)", "log10(IC50)": 4.62}

QUERY: Read off the recorded log10(IC50) for Cc1cc(-c2[nH]c3ccc(C4CCNCC4)cc3c2C(C)C)c(CO)cn1
RESULT: 2.95

QUERY: For the compound Cc1cc(-c2[nH]c3ccc(C4CCN(Cc5ncn(C)n5)CC4)cc3c2C(C)C)cc(C)n1 , give its measured log10(IC50) value.
RESULT: 3.19

QUERY: Tell me measured log10(IC50) for Cc1cc(-c2[nH]c3ccc(C4CCN(CC(=O)N5CCC5)CC4)cc3c2C(C)C)cc(C)n1 please.
RESULT: 3.18

QUERY: Kindly indicate its recorded log10(IC50). Item: CCCN1CCC(c2ccc3[nH]c(-c4cc(C)nc(C)c4)c(C(C)C)c3c2)CC1
RESULT: 2.56

QUERY: Consider the compound Cc1cc(-c2[nH]c3ccc(C4CCNCC4)cc3c2C(C)C)cc(N)n1 and give its recorded log10(IC50).
RESULT: 2.56

* * *

test_target: human TLR9 (Homo sapiens (Human), UniProt Q9NR96)
assay_overview: TLR9 inhibition reporter assay (HEK-Blue cells, SEAP reporter, ODN2006 stimulation);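 further: compounds tested over 0.05 nM to 50 µM, 22 h incubation, inhibition taken as SEAP signal drop from agonist plus DMSO wells toward a known inhibitor control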
reported_conditions: read-out: TLR9 IC50, HEK-Blue cells overexpressing human TLR9, ODN2006 5 nM
attribute_measured: pIC50
Scale: pIC50 equals -log10([C]), with [C] in mol/L.

Use these answered entries as a reference point.
{"molecule": "Cc1cc(-c2[nH]c3ccc(C4CCN(Cc5[nH]cnc5C)CC4)cc3c2C(C)C)ccn1 [Example 744]", "test_target": "human TLR9 (Homo sapiens (Human), UniProt Q9NR96)", "pIC50": 6.55}
{"molecule": "CNCCN1CCC(c2ccc3[nH]c(-c4cc(C)nc(C)c4)c(CC(F)F)c3c2)CC1 [Example 541]", "test_target": "human TLR9 (Homo sapiens (Human), UniProt Q9NR96)", "pIC50": 6.96}
{"molecule": "CC(C)c1c(-c2ccnc(C3CC3)c2)[nH]c2ccc(C3CCNCC3)cc12 [Example 483]", "test_target": "human TLR9 (Homo sapiens (Human), UniProt Q9NR96)", "pIC50": 5.84}
{"molecule": "CCOC(=O)N1CCC(c2ccc3[nH]c(-c4ccnc(C)c4)c(C(C)C)c3c2)CC1 [Example 560]", "test_target": "human TLR9 (Homo sapiens (Human), UniProt Q9NR96)", "pIC50": 4.98}
{"molecule": "Cc1cc(-c2[nH]c3ccc(C4CCN(CC(=O)N(C)C)CC4)cc3c2C(C)C)c(Cl)c(C)n1 [Example 644]", "test_target": "human TLR9 (Homo sapiens (Human), UniProt Q9NR96)", "pIC50": 5.64}
{"molecule": "Cc1cc(-c2[nH]c3ccc(C4CCN(C(=O)C5(C#N)CC5)CC4)cc3c2C(C)C)ccn1 [Example 611]", "test_target": "human TLR9 (Homo sapiens (Human), UniProt Q9NR96)", "pIC50": 5.02}
{"molecule": "Cc1cc(-c2[nH]c3ccc(C4CCN(CC(=O)N5CCNC(=O)C5)CC4)cc3c2C(C)C)cc(C)n1 [Example 272]", "test_target": "human TLR9 (Homo sapiens (Human), UniProt Q9NR96)", "pIC50": 7.34}

Query molecule follows.
QUERY: Consider the molecule CCc1c(-c2ccnc(C)c2)[nH]c2ccc(C3CCN(C(=O)C4CCNCC4)CC3)cc12 [Example 625] . State its measured pIC50.
RESULT: 6.75

* * *

Measured pIC50 values are reported for all entries that follow.
test_target: human TLR7 (Homo sapiens (Human))
assay_overview: TLR7 inhibition reporter assay (HEK-Blue cells, SEAP reporter, gardiquimod stimulation)
Type: cell-based
reported_conditions: HEK-Blue cells overexpressing human TLR7, gardiquimod 7.5 μM
By convention, pIC50 is the negative base-10 log of a molar concentration.

{"structure": "CNCCN1CCC(c2ccc3[nH]c(-c4cc(C)nc(C)c4)c(CC(F)F)c3c2)CC1", "pIC50": 7.94}

QUERY: Report pIC50 for CCOCCN1CCC(c2ccc3[nH]c(-c4ccnc(C)c4)c(C(C)C)c3c2)CC1
RESULT: 7.50

QUERY: Assign pIC50 to the following record: Cc1cc(-c2[nH]c3ccc(C4CCN(C5CCS(=O)(=O)CC5)CC4)cc3c2C(C)C)cc(C)n1
RESULT: 8.43

QUERY: Consider the molecule Cc1cc(-c2[nH]c3ccc(C4CCN(CCC#N)CC4)cc3c2C(C)C)c(F)cn1 . State its measured pIC50.
RESULT: 8.03

QUERY: Please look at this molecule and report its pIC50: CCOCCNC(=O)CN1CCC(c2ccc3[nH]c(-c4cc(C)nc(C)c4)c(C(C)C)c3c2)CC1
RESULT: 8.08

QUERY: Using known records, supply pIC50 for Cc1cc(-c2[nH]c3ccc(C4CCN(C(=O)CN5CC(F)(F)C5)CC4)cc3c2C(C)C)cc(C)n1
RESULT: 7.83

QUERY: For Cc1cc(-c2[nH]c3ccc(C4CCNCC4)cc3c2C(C)C)cc(C)[n+]1[O-] , write its pIC50.
RESULT: 8.34

QUERY: Answer with reported pIC50 of Cc1cc(-c2[nH]c3ccc(C4CCN(C(=O)CNC5CCOCC5)CC4)cc3c2C(C)C)cc(C)n1
RESULT: 8.44

* * *

test_target: UniProt Q9NR97
Sequence (Q9NR97 27-1041): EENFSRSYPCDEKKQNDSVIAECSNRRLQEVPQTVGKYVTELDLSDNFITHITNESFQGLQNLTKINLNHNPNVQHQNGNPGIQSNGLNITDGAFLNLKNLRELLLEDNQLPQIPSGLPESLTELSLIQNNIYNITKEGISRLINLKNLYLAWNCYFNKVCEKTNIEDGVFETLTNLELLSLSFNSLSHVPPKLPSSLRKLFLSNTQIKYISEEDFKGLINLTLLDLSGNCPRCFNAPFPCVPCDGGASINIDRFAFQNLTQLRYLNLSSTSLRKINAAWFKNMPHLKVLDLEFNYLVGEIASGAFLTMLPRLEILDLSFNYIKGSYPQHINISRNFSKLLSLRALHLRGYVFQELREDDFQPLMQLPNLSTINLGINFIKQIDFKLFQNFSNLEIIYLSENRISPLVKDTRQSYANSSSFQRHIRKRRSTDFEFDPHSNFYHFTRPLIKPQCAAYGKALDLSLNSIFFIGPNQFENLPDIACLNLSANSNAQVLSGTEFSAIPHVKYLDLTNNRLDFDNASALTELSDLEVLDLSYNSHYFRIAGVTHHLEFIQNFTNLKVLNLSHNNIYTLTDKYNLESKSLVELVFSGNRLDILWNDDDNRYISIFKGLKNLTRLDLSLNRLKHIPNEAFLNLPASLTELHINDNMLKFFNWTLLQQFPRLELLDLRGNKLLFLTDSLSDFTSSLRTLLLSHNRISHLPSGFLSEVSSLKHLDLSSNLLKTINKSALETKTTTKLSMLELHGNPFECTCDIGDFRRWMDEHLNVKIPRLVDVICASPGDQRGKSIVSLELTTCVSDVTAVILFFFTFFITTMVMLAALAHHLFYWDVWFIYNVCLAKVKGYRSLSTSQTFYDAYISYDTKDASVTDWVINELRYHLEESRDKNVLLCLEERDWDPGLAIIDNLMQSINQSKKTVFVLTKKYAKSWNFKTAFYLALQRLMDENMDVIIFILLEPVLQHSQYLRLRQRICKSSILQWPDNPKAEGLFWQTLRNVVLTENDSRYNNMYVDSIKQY
assay_overview: TLR8 inhibition reporter assay (HEK-Blue cells, SEAP reporter, R848 stimulation);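 further: compounds tested from 0.05 nM to 50 µM, 22 h at 37 °C, SEAP measured with HEK-Blue Detection, inhibition relative to agonist plus DMSO versus a known inhibitor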
reported_conditions: read-out: TLR8 IC50, HEK-Blue cells overexpressing human TLR8, R848 15.9 μM
Listing: IC50 of selected compounds
Please state the value followed by its unit.

{"structure": "CC(=O)N1CCC(c2ccc3[nH]c(-c4cc(C)nc(C)c4)c(C(C)C)c3c2)CC1", "IC50": "81.1 nM"}
{"structure": "Cc1cc(-c2[nH]c3ccc(C4CCN(C(=O)CN5CCN(CCO)CC5)CC4)cc3c2C(C)C)cc(C)n1", "IC50": "18.3 nM"}
{"structure": "Cc1c(-c2[nH]c3ccc(C4CCNCC4)cc3c2C(C)C)ccnc1Cl", "IC50": "28.8 nM"}
{"structure": "CNCCN1CCC(c2ccc3[nH]c(-c4ccncc4OC)c(C)c3c2)CC1", "IC50": "27.5 nM"}
{"structure": "Cc1cc(-c2[nH]c3ccc(C4CCN(CC(=O)N(C)C)CC4)cc3c2C(C)C)c(Cl)c(C)n1", "IC50": "6 nM"}

QUERY: Identify measured IC50 obtained with UniProt Q9NR97 for Cc1cc(-c2[nH]c3ccc(C4CCN(C(=O)C5CCNCC5)CC4)cc3c2C(C)C)cc(C)n1 .
RESULT: 27.3 nM

QUERY: Please report the measured IC50 for Cc1cc(-c2[nH]c3ccc(C4CCN(Cc5nnn[nH]5)CC4)cc3c2C(C)C)c(C)cn1 tested on UniProt Q9NR97.
RESULT: 111 nM

QUERY: Give reported IC50 for Cc1cc(-c2[nH]c3ccc(C4CCN(C(=O)Cc5csc(C)n5)CC4)cc3c2C(C)C)cc(C)n1 (UniProt Q9NR97)
RESULT: 124 nM

* * *

test_target: human TLR7 (Homo sapiens (Human), UniProt Q9NYK1)
Sequence (Q9NYK1 27-1049): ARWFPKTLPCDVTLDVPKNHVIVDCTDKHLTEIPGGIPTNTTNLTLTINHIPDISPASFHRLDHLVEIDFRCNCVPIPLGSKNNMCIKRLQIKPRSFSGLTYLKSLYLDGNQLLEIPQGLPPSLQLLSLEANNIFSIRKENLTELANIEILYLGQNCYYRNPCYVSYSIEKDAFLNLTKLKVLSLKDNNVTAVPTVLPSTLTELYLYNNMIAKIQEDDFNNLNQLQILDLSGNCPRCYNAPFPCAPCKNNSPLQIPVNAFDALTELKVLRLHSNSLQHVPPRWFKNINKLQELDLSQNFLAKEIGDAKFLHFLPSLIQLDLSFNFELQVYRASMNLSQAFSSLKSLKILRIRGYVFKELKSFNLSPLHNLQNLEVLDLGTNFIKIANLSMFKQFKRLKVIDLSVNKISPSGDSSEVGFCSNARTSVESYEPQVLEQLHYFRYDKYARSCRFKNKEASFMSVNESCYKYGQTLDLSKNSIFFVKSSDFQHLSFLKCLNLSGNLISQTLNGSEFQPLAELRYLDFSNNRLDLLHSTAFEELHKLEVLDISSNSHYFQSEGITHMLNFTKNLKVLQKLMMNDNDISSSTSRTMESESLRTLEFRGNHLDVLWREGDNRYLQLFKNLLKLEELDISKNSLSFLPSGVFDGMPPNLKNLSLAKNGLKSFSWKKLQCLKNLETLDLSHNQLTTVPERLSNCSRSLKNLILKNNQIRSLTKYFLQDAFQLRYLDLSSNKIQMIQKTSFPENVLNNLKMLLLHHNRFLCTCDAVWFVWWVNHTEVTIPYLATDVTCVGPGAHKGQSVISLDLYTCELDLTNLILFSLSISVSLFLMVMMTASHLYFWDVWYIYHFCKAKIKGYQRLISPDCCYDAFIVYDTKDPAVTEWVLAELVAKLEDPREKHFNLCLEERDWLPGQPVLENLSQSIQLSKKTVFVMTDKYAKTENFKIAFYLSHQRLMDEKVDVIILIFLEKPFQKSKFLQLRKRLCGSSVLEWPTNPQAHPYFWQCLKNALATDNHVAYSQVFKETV
assay_overview: TLR7 inhibition reporter assay (HEK-Blue cells, SEAP reporter, gardiquimod stimulation)
Type: cell-based
reported_conditions: HEK-Blue cells, gardiquimod 7.5 μM
attribute_measured: pIC50
# log scale: pIC50 equals minus log10 of the concentration in mol/L

Look over these answered cases.
{"compound": "CCN1CCC(N2CCC(c3ccc4[nH]c(-c5ccncc5)c(C)c4c3)CC2)CC1", "pIC50": 6.31}
{"compound": "Cc1cc(-c2[nH]c3cc(F)c(C4CCN(CC(=O)N(C)C)CC4)cc3c2C(C)C)c(F)cn1", "pIC50": 8.41}

QUERY: Return reported pIC50. Input compound: Cc1cc(-c2[nH]c3cc(F)c(C4CCN(C5COC5)CC4)cc3c2C(C)C)cc(C)n1
RESULT: 8.36

QUERY: Specify reported pIC50 for the compound shown: Cc1cc(-c2[nH]c3ccc(C4CCN(C(C)C)CC4)cc3c2C(C)C)ccn1
RESULT: 7.88

QUERY: Please report the measured pIC50 for Cc1cc(-c2[nH]c3ccc(C4CCN(CC5CC5)CC4)cc3c2C(C)C)c(C)cn1
RESULT: 8.00

QUERY: Give pIC50 for CCc1c(-c2ccnc(C)c2)[nH]c2ccc(C3CCN(CC(O)CN(C)C(C)C)CC3)cc12 (centres unmarked)
RESULT: 7.51

QUERY: State, in one line, measured pIC50 of COc1cc(-c2[nH]c3ccc(C4CCN(C5CCN(C(C)C)CC5)CC4)cc3c2C)ccn1
RESULT: 6.33

QUERY: Tell us which pIC50 value is on record for Cc1cc(-c2[nH]c3ccc(C4CCN(C(=O)C(=O)N(C)CCN(C)C)CC4)cc3c2C(C)C)cc(C)n1
RESULT: 8.72

Source: patent US10660877B2
